- Study System: EBOV GPddmuc (Ebola virus (EBOV), UniProt Q05320 33-650)
- Assay Explanation: ELISA
pEC50: −log10 of the molar value.
Measured Endpoint: pEC50

# Binder, Meas Value
data = [
    ("FVM21 (antibody, V domains shown) VH: EVQLVESGAEVKRPGESLTISCKTSGYSFTDSWVAWVRQMPGKGLEWLGSIYPGDSETKYNPSFQGHVTISADKSISTTYLQWSSLRASDTATYYCVKGADDWGPGLLVTVSS VL: SSELTQPASLSASPGASASLTCTFSGGINVAGYNILWYQQKAGSPPRYLLRYKSDSDKGQGSGVPSRFSGSKDASANTGILRISGLQSEDEADYYCAIGHSSGWIFGGGTRLTVL", 10.17),
    ("FVM08 (antibody, V domains shown) VH: EVQLVQSGAEVKRPGESLTISCKTSGYSFTDSWVAWVRQMPGKGLEWMGSIYPGDSDTRYNPSFEGQVTISADKSISTTYLQWSSLRASDTATYYCVKGADDWGQGVLVTVSS VL: QPVLTQPASLSASPGASASLTCTFSGGINVAGYNILWYQQKAGSPPRYLLRYKSDSTKDQGSGVPSRFSGSKDASANTGILRISGLQSEDEADYYCAIGHSSGWIFGGGTRLTVL", 9.34),
    ("FVM16 (antibody, V domains shown) VH: EVQLVQSGAEVKRPGESLKISCRTSGYSFTSTWINWVRQMPGKGLEWLGSIYPGDSETKYNPSFQGHVTISADKSVTTTYLKWSSLKASDTATYYCVKGSETWGQGVLVTVSS VL: KPMLTQPASLSASPGASASLTCTFSGGINVAGYNILWYQQKAGSPPRYLLRYKSDSTKDQGSGVPSRFSGSKDASANTGILRISGLQSEDEADYYCAIGHSSGWVFGGGTRLTVL", 10.18),
    ("FVM34 (antibody, V domains shown) VH: EVQLVESGAEVKRPGESLTISCKTSGYSFTDSWVSWVRQMPGKGLEWMGSIYPGDSETKYNPSFQGHVTISADKSVTTTYLKWSSLKASDTATYYCVKGSETWGQGVLVTVSS VL: QPVLTQPASLSASPGASASLTCTFSGGINVAGYYIHWYQQKPGSPPRYLLRYKSDSDKHQGSGVPSRFSGSKDASANTGILRISGLQSEDEADYYCAIGHSSGWVFGGGTRLTVL", 10.57),
    ("FVM14 (antibody, V domains shown) VH: EVQLVQSGAEVKRPGESLKISCQTSGYSFTSTWITWVRQMPGKGLEWLGSIYPGDSETKYNPSFQGHVTISADKSISTTYLQWNSLKASDTATYYCVKGSETWGQGVLVTVSS VL: QAVVTQPASLSASPGASASLTCTFSGGINVAGYNILWYQQKAGSPPRYLLRYKSDSTKDQGSGVPSRFSGSKDASANTGILRISGLQSEDEADYYCAIGHSSGWIFGGGTRLTVL", 10.07),
    ("FVM37 (antibody, V domains shown) VH: QVQLVQSGAEVKRPGESLKISCKTSGYRFTSSWISWVRQMPGKGLEWLGSIYPGDSETKYNPSFQGHVTISADKSVTTTYLKWSSLKASDTATYYCVKGSETWGQGVLVTVSS VL: SSELTQPASLSASPGASASLTCTFSGGINVAGYNILWYQQKAGSPPRYLLRYKSDSTKDQGSGVPSRFSGSKDASANTGILRISGLQSEDEADYYCAIGHSSGWIFGGGTRLTVL", 10.33),
    ("FVM02P (antibody, V domains shown) VH: EVQLVESGGGLVQPGGSLRLSCAASGFTGFTFSDYAFYWVRQAPGKGLEWVGFIRGKAYGGTADYAASVKGRFTISRDNSKNTAYLQMSSLKTEDSAVYYCTSQGVTVATPYHWGQGVLVTVSS VL: DIVLTQSPLSLPVTPGEPASISCRSSQSLLHSGGKTYLYWYLQKPGQSPQLLIHEVSNRASGVPDRFSGSGSGTDFTLKISRVEAEDVGVYYCMQGIQLPLTFGGGTKVEIKR", 9.90),
    ("FVM23 (antibody, V domains shown) VH: QVQLVQSGAEVKRPGESLTISCKTSGYSFTGSWISWVRQMPGKGLEWMGSIYPGDSDTTYNPSFQGHVTISADKSISTAYLQWTSLKASDTATYYCVKGSETWGQGVLVTVSS VL: SYELTQPASLSASPGASASLTCTFSGGINVAGYNILWYQQKAGSPPRYLLRYKSDSTKDQGSGVPSRFSGSKDASANTGILRISGLQSEDEADYYCAIGHSSGLIFGAGTRLTVL", 10.06),
    ("FVM05 (antibody, V domains shown) VH: QVQLQESGPGLVKPSETLSLTCAVSGFSISSGYGWSWIRQPPGKGLEWIGYIGGSSGSTSYNPSLKSRVTLSADTSKNQFSLKLSSVTAADTAVYYCARRYSSYRSWFDVWGPGVLVTVSS VL: SSGLTQPRSVSVSPGQTARITCGGDNIGSKSVHWYQQKPPQAPVLVIYADSERPSGIPERFSGSNSGNTATLTISGVEAGDEADYYCQVWDSSSDHWVFGGGTRLTVL", 8.57),
    ("FVM32 (antibody, V domains shown) VH: QVQLVQSGAEVKRPGESLRISCKTSGYSFTDSWVAWVRQMPGKGLEWLGSIYPGDSDTRYSPSFQGQVTISADKSITTAYLKWSSLKASDTATYYCVKGSETWGQGVLVTVSS VL: QPVLTQPASLSASPGASASLTCTFNGGITVPGYDILWYQQKSGSPPRYLLRYKSDSTKDQGSGVPSRFSGSKDASTNTGILRISGLQSEDEADYYCAIGHSSGWIFGGGTRLTVL", 10.14),
]
